# Tested System: HLA-A*02:06
# Method Summary: IEDB peptide-MHC binding, purified MHC/competitive/radioactivity; filed as Kd, often an IC50 or EC50 that approximates it; bounds were set here for any values at or beyond the usual limits of such assays
# Setup Conditions: source organism: Hepacivirus hominis
Measure: Kd (µM)
Quick reminder: number only, in µM, skip the unit.

For the sequence KLSGLGFNAV , the measured Kd on HLA-A*02:06 was 0.0245

====

# Tested System: HLA-B*27:05
# Method Summary: IEDB peptide-MHC binding, purified MHC/direct/fluorescence; filed as Kd, often an IC50 or EC50 that approximates it; bounds were set here for any values at or beyond the usual limits of such assays
# Setup Conditions: source organism: Escherichia coli
pKd: −log10 of the molar value.
Measure: pKd

Lab note: SHDTIGPYY gave pKd of ≤ 4.70
